All values here come from the supplement of paper PMC9170038.

Tested on: MS2 coat protein
Experiment: apparent KD of MS2 coat protein; designed switch direction (-1 OFF switch, 1 ON switch): 1; higher = weaker reporter binding
Settings: input ligand: FMN 200 uM
MEASURE: apparent KD of MS2 coat protein

INSERT INTO measurements (sequence_text, observed_value) VALUES
  ('UAGGGACAUGAGGAUCACCCAUGUGCCUCAUAUGGAGAAACUCAGGAUAUGCUGAGGAUCACCCGGCAGAAGGGAGAUUUGAGG (Eterna round: R96, puzzle: Same State NG 3)', '42.3 nM');

Task: What value of measured apparent KD of MS2 coat protein is listed for GCCGCGUUUCGCGCCUACAUGAGGAUCACCCAUGUUUGUAGGCAGGAUAUCGUCCGCUCUGCGGGCGAGAAGGGCUGUUGUGGC [salish99_SSNG3_R04_022] (Eterna round: R96, puzzle: Same State NG 3) ?
Output: 41.2 nM

Task: What value of measured apparent KD of MS2 coat protein is listed for CGGCGCUGUCGAGAGGAUAUGCGGUGACGGACAUGAGGAUCACCCAUGUUAGCGAUAGCGUUACGGUAGAAGGCUCUACAGUCGC [Soteed Omei mod 10] (Eterna round: R96, puzzle: Same State 2) ?
Output: 19.1 nM
